# Tested on: HTT mRNA
# ASSAY_NAME: Splicing RT-qPCR assay, HTT canonical (CJ) and alternative (AJ) junction mRNA
# Assay type: cell-based, human
# DETAILS: Homo sapiens, A673 or K562 cells, 24 hours compound treatment, read-out: HTT AJ (AC50, increase in alternative junction mRNA)
Each record here notes measured AC50.

INPUT: What does the data say about its AC50? Entry: CCn1cc2c(N3CCNC(CF)C3)ccc(C(=O)Nc3cc(F)c4nc(C)cn4c3)c2n1 (centres unmarked) [Compound 453]
OUTPUT: > 10 µM

INPUT: Look up AC50 for this compound: CCn1cc2c(N3CCN4CCOC[C@H]4C3)ccc(C(=O)Nc3cc(F)c4nc(C)cn4c3)c2n1 [Compound 537]
OUTPUT: > 10 µM

INPUT: Item CCn1cc2c(C3OCC(C)(N)CO3)ccc(C(=O)Nc3cc(F)c4nc(C)cn4c3)c2n1 (centres unmarked) [Compound 454] has what recorded AC50?
OUTPUT: 1 to 10 µM

INPUT: What value of AC50 has been reported for the following compound? Cc1cn2cc(NC(=O)c3ccc(N4CCNCC4)c4c(C)n(C)nc34)cc(F)c2n1 [Compound 297]
OUTPUT: 1 to 10 µM

INPUT: Any idea what its AC50 is? The compound is Cc1cn2cc(NC(=O)c3ccc(N4CCNCC4)c4cn(Cc5ccncc5)nc34)cc(F)c2n1 [Compound 313]
OUTPUT: > 10 µM

###

# Tested on: HTT mRNA
# ASSAY_NAME: Splicing RT-qPCR assay, HTT canonical (CJ) and alternative (AJ) junction mRNA
# Format: cell-based, human
# DETAILS: Homo sapiens, Table 3B, canonical junction mRNA, read-out: HTT CJ (IC50, decrease in CJ mRNA)
pIC50: −log10 of the molar value.
The reader will find reported pIC50 values listed item by item below.

As a guide, the following entries are already answered.
molecule=Cc1cn2cc(NC(=O)c3ncc(N4CCNCC4)c4cn(C)nc34)cc(F)c2n1 target_of_assay="HTT mRNA" experimental_result="< 5.00"
molecule="CCn1cc2c(N3CCC(NC)C3)ncc(C(=O)Nc3cc(F)c4nc(C)cn4c3)c2n1 (centres unmarked)" target_of_assay="HTT mRNA" experimental_result="5.00 to 6.00"
molecule=Cc1cn2cc(NC(=O)c3ccc(N4CCC(N(C)C)CC4)c4csnc34)cc(F)c2n1 target_of_assay="HTT mRNA" experimental_result="6.00 to 7.00"
molecule=Cc1cn2cc(NC(=O)c3c(F)cc(N4CC[C@@H](NC5CCC5)C4)c4csnc34)cc(F)c2n1 target_of_assay="HTT mRNA" experimental_result="6.00 to 7.00"
molecule=CCc1nc2c(C(=O)Nc3cc(F)c4nc(C)cn4c3)ccc(N3CCNCC3)c2s1 target_of_assay="HTT mRNA" experimental_result="5.00 to 6.00"
molecule=CCn1cc2c(N3CCNCC3)ncc(C(=O)Nc3cc(F)c4nc(C)cn4c3)c2n1 target_of_assay="HTT mRNA" experimental_result="6.00 to 7.00"
molecule=CCn1cc2c(N3CCC(N)(CC)CC3)ncc(C(=O)Nc3cc(F)c4nc(C)cn4c3)c2n1 target_of_assay="HTT mRNA" experimental_result="5.00 to 6.00"
molecule=CCn1cc2c(N3CCN(C)CC3)ncc(C(=O)Nc3cc(F)c4nc(C)cn4c3)c2n1 target_of_assay="HTT mRNA" experimental_result="5.00 to 6.00"

INPUT: Which pIC50 value belongs to COc1c(NC(=O)c2ccc(N3CCNCC3)c3nc(C)nn23)cn2cc(C)nc2c1F ?
OUTPUT: > 7.00

INPUT: Name the recorded pIC50 for Cc1cn2cc(NC(=O)c3ccc(N4CCNCC4)c4csnc34)cc(F)c2n1 .
OUTPUT: 6.00 to 7.00

INPUT: Given Cc1cn2cc(NC(=O)c3ccc(N4CCNCC4)c4cc(CO)nn34)cc(F)c2n1 , state its recorded pIC50.
OUTPUT: 6.00 to 7.00
